Biological target: Mitogen-activated protein kinase kinase kinase 7 (Homo sapiens) (UniProt O43318)
Sequence (whole entry): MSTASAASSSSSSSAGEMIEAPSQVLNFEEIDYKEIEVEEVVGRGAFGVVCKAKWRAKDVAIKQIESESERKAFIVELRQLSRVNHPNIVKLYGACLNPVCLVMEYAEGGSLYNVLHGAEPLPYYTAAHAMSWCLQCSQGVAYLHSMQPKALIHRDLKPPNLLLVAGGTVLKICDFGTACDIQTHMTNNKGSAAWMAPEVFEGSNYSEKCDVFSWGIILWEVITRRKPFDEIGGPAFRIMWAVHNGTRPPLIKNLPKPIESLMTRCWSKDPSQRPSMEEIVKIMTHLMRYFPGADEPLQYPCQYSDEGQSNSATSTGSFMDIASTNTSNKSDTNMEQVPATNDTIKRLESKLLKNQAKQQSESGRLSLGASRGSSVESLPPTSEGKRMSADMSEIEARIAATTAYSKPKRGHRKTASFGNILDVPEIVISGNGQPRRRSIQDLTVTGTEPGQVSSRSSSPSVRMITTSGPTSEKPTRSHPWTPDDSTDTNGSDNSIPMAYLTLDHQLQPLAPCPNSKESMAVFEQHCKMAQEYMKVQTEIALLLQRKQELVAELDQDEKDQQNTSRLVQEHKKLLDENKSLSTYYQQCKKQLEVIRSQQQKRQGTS
Assay: Inhibition of TAK1 (unknown origin) at 500 nM by ADP-Glo kinase assay
TEST_READOUT: inhibition

INSERT INTO results (structure_smiles_string, test_readout, endpoint_result) VALUES
  ('C[C@@H]1CN(c2ccc3ncc(-c4cccc(S(C)(=O)=O)c4)n3n2)C[C@H](C)O1', 'inhibition', '< 50%'),
  ('C[C@@H]1CN(c2ccc3ncc(-c4ccc(F)cc4)n3n2)C[C@H](C)O1', 'inhibition', '< 50%'),
  ('Cc1n[nH]c2ccc(-c3cnc4ccc(N5C[C@@H](C)O[C@@H](C)C5)nn34)cc12', 'inhibition', '100%'),
  ('C[C@@H]1CN(c2ccc3ncc(-c4ccc(C#N)cc4)n3n2)C[C@H](C)O1', 'inhibition', '< 50%'),
  ('C[C@@H]1CN(c2ccc3ncc(-c4ccncc4)n3n2)C[C@H](C)O1', 'inhibition', '< 50%'),
  ('C[C@@H]1CN(c2ccc3ncc(-c4ccccc4)n3n2)C[C@H](C)O1', 'inhibition', '< 50%'),
  ('CCc1n[nH]c2ccc(-c3cnc4ccc(N5C[C@@H](C)O[C@@H](C)C5)nn34)cc12', 'inhibition', '100%'),
  ('C[C@@H]1CN(c2ccc3ncc(-c4ccc5c(c4)CC(=O)N5)n3n2)C[C@H](C)O1', 'inhibition', '< 50%'),
  ('Cc1n[nH]c2ccc(-c3cnc4ccc(N5CCOC(C)(C)C5)nn34)cc12', 'inhibition', '100%'),
  ('C[C@@H]1CN(c2ccc3ncc(-c4ccc5cn[nH]c5c4)n3n2)C[C@H](C)O1', 'inhibition', '> 50%'),
  ('C[C@@H]1CN(c2ccc3ncc(-c4cccc(C#N)c4)n3n2)C[C@H](C)O1', 'inhibition', '< 50%'),
  ('Cc1n[nH]c2ccc(-c3cnc4ccc(N5CCO[C@H](C)C5)nn34)cc12', 'inhibition', '> 50%'),
  ('C[C@@H]1CN(c2ccc3ncc(-c4ccc(F)c(C#N)c4)n3n2)C[C@H](C)O1', 'inhibition', '< 50%'),
  ('C[C@@H]1CN(c2ccc3ncc(-c4ccc5[nH]ncc5c4)n3n2)C[C@H](C)O1', 'inhibition', '> 50%'),
  ('Cc1nc2ccc(N3C[C@@H](C)O[C@@H](C)C3)nn2c1-c1ccc2[nH]nc(C)c2c1', 'inhibition', '< 50%'),
  ('Cc1n[nH]c2ccc(-c3cnc4ccc(N5CCO[C@@H](C)C5)nn34)cc12', 'inhibition', '100%'),
  ('C[C@@H]1CN(c2ccc3ncc(-c4cccnc4)n3n2)C[C@H](C)O1', 'inhibition', '< 50%'),
  ('C[C@@H]1CN(c2ccc3ncc(-c4ccc(OC(F)(F)F)cc4)n3n2)C[C@H](C)O1', 'inhibition', '< 50%'),
  ('C[C@@H]1CN(c2ccc3ncc(-c4ccc(C(F)(F)F)cc4)n3n2)C[C@H](C)O1', 'inhibition', '< 50%'),
  ('C[C@@H]1CN(c2ccc3ncc(-c4ccc(Cl)cc4)n3n2)C[C@H](C)O1', 'inhibition', '< 50%');

---

pIC50 values for the molecules below.
Target: Mitogen-activated protein kinase kinase kinase 7 (Homo sapiens)
Sequence (O43318 whole entry): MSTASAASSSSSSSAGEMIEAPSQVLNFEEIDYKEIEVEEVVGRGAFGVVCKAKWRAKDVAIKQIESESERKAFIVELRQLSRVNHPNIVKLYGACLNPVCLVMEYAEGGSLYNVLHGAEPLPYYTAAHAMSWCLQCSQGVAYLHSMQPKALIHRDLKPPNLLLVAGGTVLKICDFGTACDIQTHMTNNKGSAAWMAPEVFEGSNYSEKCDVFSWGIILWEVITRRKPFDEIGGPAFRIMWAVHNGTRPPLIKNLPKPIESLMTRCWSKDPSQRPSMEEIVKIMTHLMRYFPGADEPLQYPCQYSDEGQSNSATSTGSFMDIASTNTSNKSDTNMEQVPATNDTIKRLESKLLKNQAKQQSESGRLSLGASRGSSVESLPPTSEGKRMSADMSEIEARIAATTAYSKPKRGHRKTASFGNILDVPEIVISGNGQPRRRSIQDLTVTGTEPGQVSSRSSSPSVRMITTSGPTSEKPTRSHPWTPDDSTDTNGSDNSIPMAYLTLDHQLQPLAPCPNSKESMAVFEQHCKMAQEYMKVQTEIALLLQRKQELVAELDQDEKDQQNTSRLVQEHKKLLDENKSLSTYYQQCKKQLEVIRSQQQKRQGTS
Assay: Inhibition of human TAK1 using casein as substrate in presence of [gamma-33P]-ATP by radiometric hotspot kinase assay
pIC50: −log10 of the molar value.
TEST_READOUT: pIC50

INSERT INTO measurements (structure_smiles_string, endpoint_result) VALUES
  ('C[C@@H]1CN(c2ccc3ncc(-c4ccc5[nH]nc(C6CC6)c5c4)n3n2)C[C@H](C)O1', 7.26),
  ('CCCn1/c(=N/C(=O)c2cccc(C(N)=O)c2)[nH]c2ccccc21', 6.73);

---

target: Mitogen-activated protein kinase kinase kinase 7 (Homo sapiens); experiment: Inhibition of TAK1 (unknown origin) at 500 nM by ADP-Glo kinase assay
TEST_READOUT: inhibition (%)

INSERT INTO assay_data (structure_smiles_string, tested_on, bound_operator, endpoint_result) VALUES
  ('Cc1n[nH]c2ccc(-c3cnc4ccc(N5C[C@@H]6C[C@H]5CO6)nn34)cc12', 'Mitogen-activated protein kinase kinase kinase 7 (Homo sapiens)', '>', 50),
  ('C[C@@H]1CN(c2ccc3ncc(-c4ccc5cnn(C)c5c4)n3n2)C[C@H](C)O1', 'Mitogen-activated protein kinase kinase kinase 7 (Homo sapiens)', '>', 50),
  ('C[C@@H]1CN(c2ccc3ncc(-c4ccc5[nH]nc(C6CC6)c5c4)n3n2)C[C@H](C)O1', 'Mitogen-activated protein kinase kinase kinase 7 (Homo sapiens)', '=', 100),
  ('C[C@@H]1CN(c2ccc3ncc(-c4ccc(C(N)=O)cc4)n3n2)C[C@H](C)O1', 'Mitogen-activated protein kinase kinase kinase 7 (Homo sapiens)', '=', 74),
  ('C[C@@H]1CN(c2ccc3ncc(-c4ccc(CC#N)cc4)n3n2)C[C@H](C)O1', 'Mitogen-activated protein kinase kinase kinase 7 (Homo sapiens)', '<', 50);

---

inhibition values for the compounds below.
target: Mitogen-activated protein kinase kinase kinase 7 (Homo sapiens) (UniProt O43318); test: Inhibition of TAK1 (unknown origin) at 100 nM by ADP-Glo kinase assay
TEST_READOUT: inhibition

INSERT INTO measurements (structure_smiles_string, endpoint_result) VALUES
  ('C[C@@H]1CN(c2ccc3ncc(-c4ccc5cn[nH]c5c4)n3n2)C[C@H](C)O1', '> 50%'),
  ('COCCN1CCN(c2ccc3ncc(-c4ccc5[nH]nc(C)c5c4)n3n2)CC1', '46%'),
  ('Cc1n[nH]c2ccc(-c3cnc4ccc(N5CCOCC5)nn34)cc12', '91%'),
  ('Cc1n[nH]c2ccc(-c3cnc4ccc(N5C[C@@H](C)O[C@@H](C)C5)nn34)cc12', '95%'),
  ('Cc1n[nH]c2ccc(-c3cnc4ccc(N5CCO[C@H](C)C5)nn34)cc12', '> 50%'),
  ('Cc1n[nH]c2ccc(-c3cnc4ccc(N5CC6CCC(C5)O6)nn34)cc12', '> 50%'),
  ('Cc1n[nH]c2ccc(-c3cnc4ccc(N5C[C@@H]6C[C@H]5CO6)nn34)cc12', '> 50%'),
  ('C[C@@H]1CN(c2ccc3ncc(-c4ccc5cnn(C)c5c4)n3n2)C[C@H](C)O1', '> 50%'),
  ('Cc1n[nH]c2ccc(-c3cnc4ccc(N5CCOC(C)(C)C5)nn34)cc12', '> 50%'),
  ('C[C@@H]1CN(c2ccc3ncc(-c4ccc5[nH]nc(C6CC6)c5c4)n3n2)C[C@H](C)O1', '> 50%');
